Provenance of the data: patent US20080085893A1

Attribute: IC50
Target: human MMP-2 (amino acids 1-660) (Homo sapiens)
Construct: human MMP-2 (amino acids 1-660); made in house
Sequence (P08253 110-660): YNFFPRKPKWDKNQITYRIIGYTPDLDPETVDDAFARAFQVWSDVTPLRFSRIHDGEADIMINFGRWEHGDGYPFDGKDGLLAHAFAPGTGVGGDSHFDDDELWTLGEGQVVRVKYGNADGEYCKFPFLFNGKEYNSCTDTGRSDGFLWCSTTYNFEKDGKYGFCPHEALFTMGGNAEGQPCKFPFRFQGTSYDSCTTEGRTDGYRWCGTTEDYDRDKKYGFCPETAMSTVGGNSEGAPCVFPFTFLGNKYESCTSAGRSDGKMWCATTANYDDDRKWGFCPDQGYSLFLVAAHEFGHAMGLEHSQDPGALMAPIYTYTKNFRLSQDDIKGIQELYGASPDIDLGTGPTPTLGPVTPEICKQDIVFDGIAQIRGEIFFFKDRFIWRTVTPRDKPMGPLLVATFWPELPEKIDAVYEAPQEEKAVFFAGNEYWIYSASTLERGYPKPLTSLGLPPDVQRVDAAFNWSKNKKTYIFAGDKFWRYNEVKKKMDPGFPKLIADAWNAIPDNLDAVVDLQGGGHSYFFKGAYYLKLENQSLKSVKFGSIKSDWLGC
Test: MMP dose response assay for determining IC50, MMP-2
Format: biochemical
Conditions: recombinant enzyme, fluorescent-quench substrate 100 nM; read-out: MMP-2
The reply should be a number in µM, with the unit left off.

Example entries begin here.
{"Smiles notation": "CS(=O)(=O)N(C[C@@H](O)C(=O)NO)c1ccc(Oc2ccccc2)cc1", "Assay readout": "IC50", "Result value": 0.472}
{"Smiles notation": "Cc1ccc(Oc2ccc(N(C[C@@H](C(=O)NO)N3CCC(O)(c4ccc(Br)cc4)CC3)S(C)(=O)=O)cc2)cc1", "Assay readout": "IC50", "Result value": 0.00037}
{"Smiles notation": "Cc1ccc(Oc2ccc(N(C[C@H](NCc3ccncc3)C(=O)NO)S(C)(=O)=O)cc2)cc1", "Assay readout": "IC50", "Result value": 0.00953}
{"Smiles notation": "CC(C)N(CCN1C(=O)N(C)C(C)(C)C1=O)[C@@H](CN(c1ccc(Oc2ccc(C(F)(F)F)cc2)cc1)S(C)(=O)=O)C(=O)NO", "Assay readout": "IC50", "Result value": 0.0243}

Ask | # lookup: IC50 of CS(=O)(=O)N(C[C@@H](C(=O)NO)N1CCC(c2ccccc2)CC1)c1ccc(Oc2ccc(C(F)(F)F)cc2)cc1
Reply | 0.0472

Ask | # lookup: IC50 of Cc1ccc(Oc2ccc(N(C[C@@H](NCc3ccccc3)C(=O)NO)S(C)(=O)=O)cc2)cc1
Reply | 0.0548

Ask | # lookup: IC50 of CS(=O)(=O)N(C[C@@H](C(=O)NO)N1CCOCC1)c1ccc(Oc2ccc(C(F)(F)F)cn2)cc1
Reply | 0.406
